- experimentalDetails: Growth inhibition of human UACC257 cells incubated for 48 hrs by sulforhodamine B assay
- Assay type: functional
- conditionDetails: UACC-257, 48 h, read-out: pLC50 (the source's name) (converted)
measuredParameter: CC50

Example cases with answers are listed next.
givenSmiles	CC50
C/C(=C\C(=O)O[C@H]1[C@@H]2[C@H](C)CC[C@H]2[C@]2(C)O[C@@]1(C(C)C)C[C@H]2NC(=O)CO)c1ccccc1	> 100 µM
CC(C)[C@@]12C[C@@H](NC(=O)CO)[C@@](C)(O1)[C@@H]1CC[C@@H](C)[C@H]1[C@@H]2OC(=O)c1ccc2ccccc2c1	64.6 µM
CC(C)[C@@]12C[C@@H](NC(=O)CO)[C@@](C)(O1)[C@@H]1CC[C@@H](C)[C@H]1[C@@H]2OC(=O)/C=C/C1CCCCC1	> 44.7 µM

Next compound, please.
Value of measured CC50 for the entry `CC(C)[C@@]12C[C@@H](NC(=O)CO)[C@@](C)(O1)[C@@H]1CC[C@@H](C)[C@H]1[C@@H]2OC(=O)/C=C/c1ccccc1` : > 50.1 µM
